# composite z-score per record follows
Biological target: Torsin-1A-interacting protein 2 (Homo sapiens)
Assay: LULL1 binders on small-molecule microarray, primary screen, cell lysate, human LULL1 lysate, 635/667 nm fluorescence (AID 1092);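 note: probe is lysate of COS7 cells overexpressing human LULL1; score merges per-feature 667 nm fluorescence with signal-to-noise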
Conditions: hLULL1 lysate binding, 635 nm fluorescence, higher = more signal
// no unit, no text: just the number

Some compounds with known composite z-score results, for comparison:
{"columns": ["compound", "experimental-value"],
 "data": [
  ["CCCC[C@@H](O)C1=C(C)C[C@H]2C(=O)N(Cc3ccccc3)C(=O)[C@H]2[C@H]1CO", -0.463],
  ["CCN1C(=O)[C@H]2[C@H]3[C@H](O)[C@H](O)CC(=NOCc4ccccc4)[C@@H]3CC[C@H]2C1=O", 0.558],
  ["COC(=O)[C@H](C)NC(=O)[C@@H](C)CO", 1.68],
  ["C[C@H](c1ccccc1)N1C(=O)[C@H]2[C@@H]3C(=CC[C@H]2C1=O)C(=O)[C@H]1O[C@H]1[C@H]3O", -0.597],
  ["CC(CCN1CCc2nc(-c3ccccc3)c(-c3ccccc3)cc2C1)=NO[C@H](C)c1cn([C@@H]2COC[C@H]2O)nn1", 2.03]
]}

If you can, please state the reported composite z-score value of CN1C(=O)[C@@]2(CCC(=O)OC(C)(C)C)N=C(c3ccc(OCCCO)cc3)O[C@H]2c2ccccc21 .
2.82

Reported composite z-score, compound Cc1cc2c(nc1C)CCCN2CC(C)ON=C1[C@H]2CCn3c(=O)n(-c4ccccc4)c(=O)n3[C@H]2[C@H](O)[C@@H]2O[C@H]12 (stereo partly drawn) : ____
1.42

Would you kindly share the measured composite z-score for CC[C@@H](c1ccccc1)n1c(=O)n2n(c1=O)[C@H]1[C@H](O)[C@@H]3O[C@@H]3C(=NOCC=C(C)CCC=C(C)C)[C@H]1CC2 ?
1.54

----------
Test: S. cerevisiae growth modulation with rapamycin, primary screen, strain BY4716, OD600, 96 h (AID 1091); note: test concentration not given here
Conditions: higher = more signal, called active from +8 up or from −8 down
Mark rule met for reported z-score of -0.7 or greater; mark rule not met for anything smaller.

These solved cases illustrate the format of a correct answer.
{"columns": ["molecule", "group-label"],
 "data": [
  ["C#CCCCON=C1C[C@@H](O)[C@@H](O)[C@@H]2[C@@H]3C(=O)N(Cc4ccccc4)C(=O)[C@@H]3CC[C@H]12", "rule not met"],
  ["COC(=O)[C@@H]1CC[C@H](C)[C@@H](c2ccc(C)cc2)N1C(=O)c1ccc(C=NOC(C)CN2CCCCc3nc(C)c(C)cc32)cc1 (some centres undefined)", "rule met"]
]}

Reported z-score at or above -0.7? CCOC(=O)CCN1C(=O)[C@H]2[C@H]3[C@H](O)[C@H](O)CC(=NOCc4ccccc4)[C@@H]3CC[C@H]2C1=O
rule met

Check the entry CO[C@@H]1COC(=O)[C@H](C)NC(=O)[C@@H](C)COC(=O)CCC[C@H]1C : does z-score equal or exceed -0.7?
rule not met

Confirm if z-score reported for the molecule C=C(/C(=C/C[C@H](OC(=O)c1ccncc1)c1ccc(OCCO)cc1)c1cnc2ccccc2c1)C(C)C is -0.7 or above.
rule met

Entry COc1cccc([C@@H]2Oc3ccc(Br)cc3C(=O)[C@H]2O)c1 : is its z-score no less than -0.7?
rule not met

Identify whether the reported z-score of the following molecule is -0.7 or greater: C=CC[C@@H]1C=C[C@H](ON=C(C)CCN2CCc3nc(CC)c(CC)cc3C2)[C@@H](CO)O1
rule met

Quick check, z-score >= -0.7? CCOC(=O)CCN1C(=O)[C@H]2[C@H]3[C@H](O)[C@H](O)CC(=O)[C@H]3CC[C@H]2C1=O
rule met

Reported z-score reaches at least -0.7 for CCOC(=O)[C@H](CC(C)C)NC(=O)CCC1CC(OC(=O)NCCc2ccc(F)cc2)CC2(CCCC(COC(=O)NCc3ccccc3)O2)O1 (some centres undefined) ?
rule met

Is z-score for COc1ccccc1CN1C(=O)c2ccccc2[C@@]2(Cc3ccccc3N(C(C)C)C2=O)[C@@H]1c1ccc(CO)cc1 at or above -0.7?
rule not met

----------
Tested on: Human papillomavirus type 1a protein E7 (residues 44-93)
Assay: HPV1a E7 fragment binders on microarrays, primary screen, biochemical, small-molecule microarray, residues 44-93, 635 nm fluorescence (AID 1108);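 note: E7 fragment applied at 1 µg/mL in TBST for 1 h at 4 C; score combines spot fluorescence with its signal to noise ratio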
Conditions: small-molecule microarray binding, fluorescence 635 nm; higher = more signal
Listed here are compounds together with their documented composite z-score.
Answer with the value's number alone.

Observe how each entry below is paired with its result.
{"columns": ["compound", "experimental-value"],
 "data": [
  ["O=C1[C@H]2[C@H]3[C@H](O)[C@H](O)CC(=NOC[C@@H](O)COCc4ccco4)[C@H]3CC[C@H]2C(=O)N1Cc1ccc2c(c1)OCO2", -0.532],
  ["CCOC(=O)[C@H](Cc1ccccc1)NC(=O)CCC1CC(OC(=O)NCCc2ccc(F)cc2)CC2(CCCC(COC(=O)NCC(c3ccccc3)c3ccccc3)O2)O1 (some centres not stated)", 1.33],
  ["COCCCNC(=O)[C@]1(CCC(=O)OC(C)(C)C)N=C(c2ccc(OCCCO)cc2)O[C@@H]1c1ccccc1N=[N+]=[N-]", 1.45],
  ["Cc1ccc(S(=O)(=O)N[C@@H]2COC(=O)[C@H](C)COC(=O)CC=C[C@H]2C)cc1", -0.45],
  ["CO[C@H]([C@@H](C)[C@H](OC)c1ccccc1)[C@H](C)[C@@H](OC)[C@H](C)C(C)=O", -0.431],
  ["COC(=O)C1(C)C=C2C(=C(c3ccccc3)C(=O)C2C)CN1 (configuration not stated)", -1.06]
]}

Now examine the next entry.
Request the reported composite z-score associated with CC1(C)OCC(C(O)C2=CCCCC2=O)CO1 (configuration not stated)
0.198

----------
Item-by-item account of z-score
Assay: modulators of S6 phosphorylation in cells, primary screen, cell-based, A549, cytoblot, luminescence, serum-stimulated (AID 1158);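 note: serum-stimulated A549 lung adenocarcinoma cells; signal is phosphorylated S6 detected by cytoblot immunostaining with HRP secondary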
Details: A549 phospho-S6 cytoblot, 5 h, higher = more signal
Respond numerically, and do not add a unit to the figure.

What value of z-score has been reported for the following compound? N#Cc1ccc(NN2C(C(O)c3cccc4ccccc34)C=CC3C(=O)N(c4ccccc4)C(=O)C32)cc1 (centres undefined)
-0.067

Reported z-score for COCC(=C=CC[C@@H](O)c1ccccc1OCCO)CCO : what is it?
0.613

Using the record for COc1ccc(O[C@H]2C=C[C@@H](c3ccccc3)O[C@@H]2COC(=O)CCC(C)=NO[C@H](C)c2cn([C@@H]3COC[C@H]3O)nn2)cc1 , report its z-score.
0.607

Endpoint output: z-score of CC(C)(C)N1CC=CC23O[C@@H]4C=CCCOC(=O)C4[C@H]2C(=O)N(CCCCCO)[C@@H]3C1=O (some centres undefined) . Value?
-0.186

----------
Target: Dihydroorotate dehydrogenase (quinone), mitochondrial (Plasmodium falciparum (isolate 3D7)) (UniProt Q08210)
Sequence (Q08210 whole entry, looked up): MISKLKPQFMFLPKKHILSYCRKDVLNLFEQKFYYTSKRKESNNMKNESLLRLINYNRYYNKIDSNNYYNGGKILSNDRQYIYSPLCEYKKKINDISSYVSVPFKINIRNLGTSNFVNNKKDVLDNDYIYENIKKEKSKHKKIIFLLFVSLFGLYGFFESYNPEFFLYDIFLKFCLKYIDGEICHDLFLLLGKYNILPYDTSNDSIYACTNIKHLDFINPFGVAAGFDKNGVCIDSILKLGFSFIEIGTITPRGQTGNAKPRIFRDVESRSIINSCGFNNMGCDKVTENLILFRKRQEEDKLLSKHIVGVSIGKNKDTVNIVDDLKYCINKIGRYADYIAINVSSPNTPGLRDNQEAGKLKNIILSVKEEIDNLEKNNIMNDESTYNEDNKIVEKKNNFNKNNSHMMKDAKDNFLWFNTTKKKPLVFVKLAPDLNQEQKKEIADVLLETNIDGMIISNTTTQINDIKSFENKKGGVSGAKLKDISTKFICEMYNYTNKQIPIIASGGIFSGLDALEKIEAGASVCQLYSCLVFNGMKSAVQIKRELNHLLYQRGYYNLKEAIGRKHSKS
Assay: PfDHODH enzyme inhibitors, primary screen, biochemical, C-terminal His tag, absorbance 600 nm (AID 1175);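 note: recombinant parasite enzyme with a five histidine tag at its C terminus; test concentration not given here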
Settings: DCIP absorbance 600 nm, higher = more signal, called active from +8 up or from −8 down
test-readout: composite z-score
Answer as a number with no unit attached.

Example entries and their recorded answers appear below.
{"columns": ["compound", "test-readout", "experimental-value"],
 "data": [
  ["Cc1cc2c(c(=O)o1)[C@H](O)[C@H]1O[C@H]1C2=O", "composite z-score", 0.44],
  ["CCN1C(=O)[C@H]2[C@H]3[C@H](O)[C@H](O)CC(=NOCc4ccccc4)[C@H]3CC[C@H]2C1=O", "composite z-score", -0.422],
  ["CCc1cc2c(nc1CC)CCN(CCC(C)=NOC(C)CN1CCCc3nc(C)c(C)cc31)C2 (stereo not given)", "composite z-score", 0.244],
  ["CC(CCC(=O)OC[C@H]1O[C@H](C#Cc2ccccc2)C=C[C@@H]1Oc1ccc(C)cc1)=NO[C@@H](C)c1cn([C@H](CO)Cc2ccccc2)nn1", "composite z-score", -2.15]
]}

Endpoint output: composite z-score of COC(=O)[C@@H]1CC[C@H](C)[C@@H](c2ccc(C)cc2)N1C(=O)c1ccc(C=NOC(C)CN2CCCCc3nc(C)c(C)cc32)cc1 (stereo not given in full) . Value?
0.613

If you can, please state the reported composite z-score value of C=CC[C@@H]1C=C[C@H](ON=Cc2ccc(C(=O)N3[C@H](c4ccc(C)cc4)[C@@H](C)CC[C@H]3C(=O)OC)cc2)[C@@H](CO)O1 .
0.16

For the compound shown here, CCOC(=O)NN=C1C[C@@H](O)[C@@H](O)[C@@H]2[C@@H]3C(=O)N(C(C)(C)C)C(=O)[C@@H]3CC[C@@H]12 , give the reported composite z-score.
0.0062

I would be grateful if you could share the reported composite z-score for COC(=O)C1=CCC(c2cccc(Cl)c2)O1 (stereo not given) .
-0.861

Consider the compound shown here: O=C1[C@H]2[C@H]3[C@H](O)[C@H](O)CC(=NOCc4ccccc4)[C@H]3CC[C@H]2C(=O)N1C[C@@H]1CCCO1 What is its recorded composite z-score?
-0.279

For the compound shown here, COC(=O)C1=C(C)[C@@H](O)[C@@H](C)[C@H](c2c(OC)c(OC)c(C)c(OC)c2OC)O1 , give the reported composite z-score.
-0.218

Query: composite z-score; subject: CC(C)CON=C1C[C@@H](O)[C@@H](O)[C@@H]2[C@@H]3C(=O)N([C@@H](C)c4ccccc4)C(=O)[C@@H]3CC[C@H]12
-0.0804

Item under review: COc1ccc([Si](C)(C)[C@@H]2[C@@H](CCO)O[C@]3(C(=O)N(Cc4ccc(NC(C)=O)cc4)c4ccccc43)[C@H]2C)cc1 . Reported composite z-score?
-1.34
